Source of measurements: paper PMC7070036

# assayed-target: SIRT2 (Homo sapiens)
# Sequence (Q8IXJ6 whole entry): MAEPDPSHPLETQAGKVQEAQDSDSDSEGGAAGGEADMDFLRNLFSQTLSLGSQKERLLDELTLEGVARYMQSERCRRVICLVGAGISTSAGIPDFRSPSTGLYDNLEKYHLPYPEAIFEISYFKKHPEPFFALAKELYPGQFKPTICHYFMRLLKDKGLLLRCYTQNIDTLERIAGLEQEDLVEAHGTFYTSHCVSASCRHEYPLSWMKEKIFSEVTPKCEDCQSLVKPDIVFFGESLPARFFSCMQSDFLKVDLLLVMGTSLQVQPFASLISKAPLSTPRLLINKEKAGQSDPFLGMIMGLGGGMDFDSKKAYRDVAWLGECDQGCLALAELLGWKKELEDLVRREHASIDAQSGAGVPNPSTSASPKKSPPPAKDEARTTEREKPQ
# test-method-notes: Continuous fluorogenic sirtuin inhibition assay, SIRT2 (tBuK peptides, TB)
# Assay type: biochemical
# measurement-setup: inhibitor 2 µM; single trials; 2 µM
Starred links: 1 amine or outer side, 2 acyl side, 3 side chain; linkers in the order of their positions; H or OH if unused. Non-standard residues stand in square brackets, D forms with d. Residues, ends and D or L forms follow the SMILES beside them. X1 = CCCC(=S)NCCCC[C@H](N[*:1])C(=O)[*:2]
Provide the reported %Activity, SIRT2 of each item.
Expressed in %, but write only the number.

# input compound: CCCC(=S)NCCCC[C@H](NC(=O)[C@@H](NC(=O)[C@@H](NC(=O)[C@@H](N)CS)[C@@H](C)O)C(C)C)C(=O)N[C@H](C(=O)N[C@@H](CO)C(=O)N[C@@H](CC(C)C)C(N)=O)[C@@H](C)O [S2P03-tBuK] (H-CTV[X1]TSL-NH2) ; wanted: its %Activity, SIRT2
2.2764

Entry CCCC(=S)NCCCC[C@H](NC(=O)[C@@H](NC(=O)[C@@H](NC(=O)[C@H](CS)NC(=O)[C@@H](N)[C@@H](C)O)[C@@H](C)O)C(C)C)C(=O)N[C@H](C(=O)NCC(N)=O)[C@@H](C)CC [S2P04-tBuK] (H-TCTV[X1]IG-NH2) : reported %Activity, SIRT2 = ?
4.4288
